Numbers sourced from PubChem BioAssay (NCI).

# Tested on: HCC-2998 colon
# measurement-notes: NCI tumour cell line growth inhibition, 48 h
Answer each item with its documented GI50.

[ask] For the molecule `Nc1ncnc2c1c(C(F)(F)F)cn2[C@@H]1O[C@H](CO)[C@@H](O)[C@H]1O` , give its measured GI50 value.
[reply] 0.633 µM

[ask] Answer with the recorded GI50 of COc1cc(C)c(C(=O)O[C@H]2[C@H](O[C@H]3[C@@H](O)COC(O[C@H]4C[C@H]5[C@@H]6CC=C7C[C@@H](O)CC[C@]7(C)[C@H]6CC[C@]5(C)[C@H]4[C@H](C)C(=O)CCC(C)C)[C@@H]3OC(C)=O)OC[C@@H](O)[C@@H]2O)c(C)c1 (stereo not given in full) only.
[reply] 2.41 µM

[ask] Return reported GI50. Input molecule: `O=C(NCc1cccnc1)/C(=C\c1ccc(Br)cc1)S(=O)(=O)c1ccccc1`
[reply] 1.51 µM

[ask] Give me measured GI50, please, for this molecule: `COc1ccc(OC)c(-c2nc3sccn3c2/C=C2/C(=O)Nc3ccc(Cl)cc32)c1`
[reply] 18.4 µM

[ask] Input Cc1c[nH]c2c1C13CC1CN(C(=O)c1cc4cc(NC(=O)c5cc6ccccc6o5)ccc4[nH]1)C3=CC2=O (stereo not given) , output reported GI50.
[reply] > 1.17 ng/mL

---

# System: A498 renal
# measurement-notes: NCI tumour cell line growth inhibition, 48 h; in the data active = GI50 below about 0.43 µM; inactive = the rest
Hi there, use one of these labels in your reply, thanks! 1 for active, -1 for inactive

[ask] Field: outcome | Entry: `S=c1nc(-c2ccccc2)oc(=NC2CCCCC2)n1C1CCCCC1`
[reply] -1

[ask] Please state the recorded outcome for this compound: `COc1ccc(/C(C)=C(\c2ccc(Cl)cc2)c2ccc(OCCN3CCCC3)cc2)cc1`
[reply] -1

[ask] Look up the recorded call for `COc1ccc(-c2ccc(/C=C/C(=O)NO)cc2)cc1` in this test.
[reply] -1

[ask] Per the assay record, what outcome was assigned to `CN(C)[C@@H]1C(=O)C(C(N)=O)=C(O)[C@@]2(O)C(=O)C3=C(O)c4c(O)cc(CN5CCc6ccccc6C5)c(Cl)c4C[C@H]3C[C@@H]12` ?
[reply] -1

[ask] Which outcome did this test record for the compound `COc1ccc(N2CCN(C(=O)c3ccccc3Nc3ccnc(C(F)(F)F)c3)CC2)cc1` ?
[reply] -1

[ask] Could you kindly confirm the outcome this assay logged for `O=C1c2ccccc2C(=O)c2c1ccc(C(Br)Br)c2[N+](=O)[O-]` ?
[reply] -1

[ask] Returns: the outcome recorded for `CCN(CC)CCN1C(=O)c2c(c(C)c3c(oc4cc(O)ccc43)c2C)C1=O` in this assay.
[reply] -1

[ask] I would be grateful if you could indicate the recorded call for `CC(C)C[C@H](NC(=O)[C@H](CCc1ccccc1)NC(=O)CN1CCOCC1)C(=O)N[C@@H](Cc1ccccc1)C(=O)N[C@@H](CC(C)C)C(=O)[C@@]1(C)CO1` .
[reply] 1

[ask] Hello, I am checking results. What call was entered for `O=C1c2[nH]cc(CN3CCNCC3)c2C(=O)c2c1c(O)c1ccccc1c2O` ?
[reply] -1

[ask] Kindly provide the recorded test outcome for the following compound: `CC[C@@]1(O)C(=O)NCc2c1cc1n(c2=O)Cc2cc3ccccc3nc2-1`
[reply] -1

[ask] Record request — test call for COc1cc(C)c(C(=O)O[C@H]2[C@H](O[C@H]3[C@@H](O)COC(O[C@H]4C[C@H]5[C@@H]6CC=C7C[C@@H](O)CC[C@]7(C)[C@H]6CC[C@]5(C)[C@H]4[C@H](C)C(=O)CCC(C)C)[C@@H]3OC(C)=O)OC[C@@H](O)[C@@H]2O)c(C)c1 (some centres not stated)
[reply] 1

[ask] Outcome logged for C#CCN1C(=O)/C(=c2\sc3n(c2=O)C2C(NN=3)N(CC)C(=O)N2CC)c2ccccc21 (configuration not stated) in this assay:
[reply] 1

[ask] Recorded call for `COc1ccc(OC)c(-c2nc3sccn3c2/C=C2/C(=O)Nc3ccc(Cl)cc32)c1` ?
[reply] -1

[ask] GET /call?item= COc1ccc(SC2c3cc(OC)c(OC)cc3Oc3nc(N)c(C#N)c(N)c32)cc1 (configuration not stated) returns the recorded outcome of this test.
[reply] -1

[ask] Name the outcome recorded for `CCN1CCN(c2nc(NNC(=O)Cc3ccccc3)nc(N3CCN(C(c4ccccc4)c4ccccc4)CC3)n2)CC1` in the assay.
[reply] -1

[ask] What did the test return for `CN(C)CCCNc1nn2c(=O)c3ccccc3nc2c2ccccc12` ?
[reply] -1

[ask] Status in this test for `O=C(c1ccccc1Nc1ccnc(C(F)(F)F)c1)N1CCN(c2cccc(Cl)c2)CC1` ?
[reply] -1

---

# Test system: MDA-MB-435
# measurement-notes: NCI tumour cell line growth inhibition, 48 h
Would you kindly list TGI for each of these compounds?

[ask] Give me measured TGI, please, for this compound: `Cc1cc2ccccc2c[n+]1CC(O)C[n+]1cc2ccccc2cc1C`
[reply] > 100 µM

[ask] Could you please provide reported TGI for `COC(=O)[C@H](C)N1C(=O)N[C@@H](C(C)C)C1=O` ? Thanks!
[reply] > 100 µM

[ask] Consider the compound `Cn1nc(C(F)(F)F)c(-c2ccc(Cl)c(C(F)(F)F)c2)c1-c1ccc(OCc2ccc(Cl)cc2)cc1O` and give its recorded TGI.
[reply] 6.27 µM

[ask] Give the reported TGI for this compound. `CC(=O)O[C@H]1C#C/C=C\C#CC[C@@H]2C(=O)N(C(=O)OC(C)(C)C)[C@@H]12`
[reply] > 100 µM

[ask] Specify reported TGI for the compound shown: `O=C1c2[nH]cc(CN3CCNCC3)c2C(=O)c2c1c(O)c1ccccc1c2O`
[reply] 4.59 µM

[ask] Indicate its recorded TGI; the compound in question is COC(=O)C1=C(O)C(C(=O)OC)[C@@]2(O)[C@@H](C(=O)OC)C(c3ccc(OC(=O)/C(=C/c4ccc(Cl)cc4)c4ccc(Cl)cc4)cc3)C[C@@H]1[C@@H]2C(=O)OC (some centres undefined)
[reply] > 100 µM

[ask] Report TGI for `C=C(CN1CCN(c2ccccc2OC)CC1)c1ccc(C(=O)Nc2ccccc2N)cc1`
[reply] 3.38 µM

[ask] Hello, please tell me recorded TGI for this one: `Cc1cc(Cc2c(F)c(F)c(Cc3cc(C)no3)c(F)c2F)on1`
[reply] > 100 µM

[ask] # return recorded TGI for entry `N#Cc1c(Nc2ccc(F)cc2)[n+]([O-])c2ccc(Cl)cc2[n+]1[O-]`
[reply] > 100 µM

---

# Tested on: T-47D breast
# measurement-notes: NCI tumour cell line growth inhibition, 48 h; in the data active means GI50 below about 0.43 µM; inactive means the rest
Result category, one only: 1 = active, -1 = inactive

[ask] How was `CC1(C)CCC[C@]23C(=O)O[C@](O)(C(=O)C4=C[C@@](C)(/C=C/CCCc5ccc6ccc7cccc8ccc5c6c78)CC[C@@]42O)[C@@H]13` classified in this test?
[reply] 1

[ask] Name the outcome recorded for `CCOC(=O)c1sc(-c2ccc(OS(=O)(=O)c3cccs3)c(C=O)c2)nc1C` in the assay.
[reply] -1

[ask] Per the records of this test, what outcome belongs to `CCN(CC)CCN1C(=O)c2c(c(C)c3c(oc4cc(O)ccc43)c2C)C1=O` ?
[reply] -1

[ask] Test call, this molecule: COc1ccc2c(c1)CCC1C2CC[C@@]2(C)C1CC[C@@]2(O)CNC(=O)/C=C/c1ccc(O)c(OC)c1 (some centres undefined)
[reply] -1

[ask] Which outcome was assigned to C/C(=N\NC(N)=O)C(CN1CCCCC1)C(c1ccccc1)c1c(O)c2ccccc2oc1=O (centres undefined) in this test?
[reply] -1

[ask] Give the logged outcome of this assay for the following molecule: `COc1cc(-c2cc(-c3ccc(N(C)C)cc3)nc(N3CCOCC3)c2C#N)cc(OC)c1OC`
[reply] -1

[ask] What did this assay record as the result for `Oc1ccc2oc3ncc(Cl)c(-c4ccccc4)c3c2c1` ?
[reply] -1

[ask] What was the test verdict on COc1ccc(SC2c3cc(OC)c(OC)cc3Oc3nc(N)c(C#N)c(N)c32)cc1 (centres undefined) ?
[reply] -1

[ask] Please indicate how the test categorized `COc1ccc(-c2oc(=O)ccc2C#Cc2cc(OC)c(OC)c(OC)c2)cc1O` .
[reply] -1

---

# Tested on: LOX IMVI melanoma
# measurement-notes: NCI tumour cell line growth inhibition, 48 h
Consider the following molecules; for each one, report its TGI.
Your answer should be a plain number; it is taken to be in µM.

[ask] Determine from records and report TGI for CC[C@]12C=CCN3CCC4(c5cc(N=Nc6ccccc6)c(OC)cc5N(C)[C@H]4[C@@](O)(C(=O)OC)[C@@H]1OC(C)=O)[C@@H]32 (stereo partly drawn)
[reply] 33

[ask] Read off the recorded TGI for `CC(C)C[C@H](NC(=O)[C@H](CCc1ccccc1)NC(=O)CN1CCOCC1)C(=O)N[C@@H](Cc1ccccc1)C(=O)N[C@@H](CC(C)C)C(=O)[C@@]1(C)CO1`
[reply] 0.0135

[ask] Specify measured TGI for `C/C(=C/CO[Si](C)(C)C(C)(C)C)C(=O)N(C)c1ccccc1I` .
[reply] 31.8

[ask] Please supply the value of reported TGI for the item `CCCCCc1cc2c(cc1O)CC[C@@H]1[C@@H]2CC[C@]2(C)[C@@H](O)CC[C@@H]12`
[reply] 39.2

[ask] Report measured TGI; entry is `O=C1c2ccccc2C(=O)c2c1ccc(C(Br)Br)c2[N+](=O)[O-]`
[reply] 2.59
